B1: Protein deacetylase HDAC6 (Homo sapiens), Q9UBN7 (parent)
chain: MTSTGQDSTTTRQRRSRQNPQSPPQDSSVTSKRNIKKGAVPRSIPNLAEVKKKGKMKKLGQAMEEDLIVGLQGMDLNLEAEALAGTGLVLDEQLNEFHCLWDDSFPEGPERLHAIKEQLIQEGLLDRCVSFQARFAEKEELMLVHSLEYIDLMETTQYMNEGELRVLADTYDSVYLHPNSYSCACLASGSVLRLVDAVLGAEIRNGMAIIRPPGHHAQHSLMDGYCMFNHVAVAARYAQQKHRIRRVLIVDWDVHHGQGTQFTFDQDPSVLYFSIHRYEQGRFWPHLKASNWSTTGFGQGQGYTINVPWNQVGMRDADYIAAFLHVLLPVALEFQPQLVLVAAGFDALQGDPKGEMAATPAGFAQLTHLLMGLAGGKLILSLEGGYNLRALAEGVSASLHTLLGDPCPMLESPGAPCRSAQASVSCALEALEPFWEVLVRSTETVERDNMEEDNVEESEEEGPWEPPVLPILTWPVLQSRTGLVYDQNMMNHCNLWDSHHPEVPQRILRIMCRLEELGLAGRCLTLTPRPATEAELLTCHSAEYVGHLRATEKMKTRELHRESSNFDSIYICPSTFACAQLATGAACRLVEAVLSGEVLNGAAVVRPPGHHAEQDAACGFCFFNSVAVAARHAQTISGHALRILIVDWDVHHGNGTQHMFEDDPSVLYVSLHRYDHGTFFPMGDEGASSQIGRAAGTGFTVNVAWNGPRMGDADYLAAWHRLVLPIAYEFNPELVLVSAGFDAARGDPLGGCQVSPEGYAHLTHLLMGLASGRIILILEGGYNLTSISESMAACTRSLLGDPPPLLTLPRPPLSGALASITETIQVHRRYWRSLRVMKVEDREGPSSSKLVTKKAPQPAKPRLAERMTTREKKVLEAGMGKVTSASFGEESTPGQTNSETAVVALTQDQPSEAATGGATLAQTISEAAIGGAMLGQTTSEEAVGGATPDQTTSEETVGGAILDQTTSEDAVGGATLGQTTSEEAVGGATLAQTTSEAAMEGATLDQTTSEEAPGGTELIQTPLASSTDHQTPPTSPVQGTTPQISPSTLIGSLRTLELGSESQGASESQAPGEENLLGEAAGGQDMADSMLMQGSRGLTDQAIFYAVTPLPWCPHLVAVCPIPAAGLDVTQPCGDCGTIQENWVCLSCYQVYCGRYINGHMLQHHGNSGHPLVLSYIDLSAWCYYCQAYVHHQALLDVKNIAHQNKFGEDMPHPH
partner: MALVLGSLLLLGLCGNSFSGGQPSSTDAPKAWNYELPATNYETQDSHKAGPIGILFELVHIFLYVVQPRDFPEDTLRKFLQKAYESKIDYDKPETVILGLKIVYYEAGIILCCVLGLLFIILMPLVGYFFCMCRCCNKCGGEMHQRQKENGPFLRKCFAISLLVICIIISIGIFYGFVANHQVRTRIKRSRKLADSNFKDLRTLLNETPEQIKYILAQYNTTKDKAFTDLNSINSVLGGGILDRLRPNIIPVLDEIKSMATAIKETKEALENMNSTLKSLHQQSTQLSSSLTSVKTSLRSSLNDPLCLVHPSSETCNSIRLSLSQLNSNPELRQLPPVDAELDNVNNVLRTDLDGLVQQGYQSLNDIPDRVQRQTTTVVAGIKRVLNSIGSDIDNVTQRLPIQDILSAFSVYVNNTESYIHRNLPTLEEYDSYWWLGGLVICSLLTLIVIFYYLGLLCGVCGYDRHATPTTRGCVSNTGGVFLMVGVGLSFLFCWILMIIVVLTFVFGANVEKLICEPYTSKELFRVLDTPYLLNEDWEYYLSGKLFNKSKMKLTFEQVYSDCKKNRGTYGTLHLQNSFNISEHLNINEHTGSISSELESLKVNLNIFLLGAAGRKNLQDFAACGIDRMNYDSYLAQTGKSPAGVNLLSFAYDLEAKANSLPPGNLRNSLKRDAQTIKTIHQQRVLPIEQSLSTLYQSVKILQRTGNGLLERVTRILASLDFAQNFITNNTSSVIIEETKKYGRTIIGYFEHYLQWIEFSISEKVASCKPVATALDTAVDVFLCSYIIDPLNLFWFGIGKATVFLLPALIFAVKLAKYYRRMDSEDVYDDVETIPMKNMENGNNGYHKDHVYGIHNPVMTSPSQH

Variants of: B1
particulars: with prom1_human PROM1, O43490
readout-name: effect of a mutation on the interaction

> print(dat)
   mutant.name        observed
1        Y570A  with no effect
2        S568A  with no effect
3  H216A;H611A  with no effect
